Molecular target: T1, extracellular domain of mouse IL23R (mIL23R ECD) (mouse, UniProt Q8K4B4 24-374)
T1 construct: also called mIL-23 ECD antigen
T1 sequence: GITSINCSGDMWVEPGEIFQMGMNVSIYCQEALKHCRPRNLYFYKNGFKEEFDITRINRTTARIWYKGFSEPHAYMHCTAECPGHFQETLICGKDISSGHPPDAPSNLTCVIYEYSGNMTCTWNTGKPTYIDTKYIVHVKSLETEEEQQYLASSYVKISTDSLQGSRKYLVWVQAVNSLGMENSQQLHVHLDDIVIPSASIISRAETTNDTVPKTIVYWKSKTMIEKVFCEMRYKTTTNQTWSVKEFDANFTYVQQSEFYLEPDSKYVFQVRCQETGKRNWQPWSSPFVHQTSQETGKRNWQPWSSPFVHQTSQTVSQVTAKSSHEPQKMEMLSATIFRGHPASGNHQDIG
Test: periplasmic extract ELISA (PE-ELISA), 96-well plate, colorimetric
Property Label: binding result

[[record]]
binder = "mIL23R VHH33 (VHH) VHH: QVQLQESGGGLVQPGGSLRLSCTTSGFTFSSSAMTWVRQAPGKGLDWVSGIDSGGTTVYADSVKGRFTISKDNAKNTLYLQMNSLKTEDTAVYYCATGLPWGNTWRTTGQGTQVTVSS"
assay_result = "binds"

[[record]]
binder = "mIL23R VHH43 (VHH) VHH: QVQLQESGGGSVQAGGSLRLSCAASGYTFCMAWFRQAPGKEREGVARFYTRDGYTYYSDSVKGRFTISQDNAKNTLYLQMNSLKSEDTAMYYCAADLTRCSSNKNDFRYWGQGTQVTVSS"
assay_result = "binds"

[[record]]
binder = "mIL23R VHH14 (VHH) VHH: QVQLQESGGGLVQPGGSLRLSCAASGFTFRTSAMTWVRQAPGKGLDWVSGIDSGGTTVYADSVKGRFTISRDSAKNTLYLQMNSLKTEDTAVYYCAMGLPWGNTWRTRGQGTQVTVSS"
assay_result = "binds"

[[record]]
binder = "mIL23R VHH22 (VHH) VHH: QVQLQESGGGSVQAGGSLRLSCAASGYTFCMAWFRQAPGKEREGVARFYTRDSYTYYSDSVKGRFTISQNNAKNTLYLQMNSLKSEDTAMYYCAADLTRCSSNKNDFRYWGQGTQVTVSS"
assay_result = "binds"

[[record]]
binder = "mIL23R VHH10 (VHH) VHH: QVQLQESGGGSVQAGGSLRLSCAASGDTYSSCTMGWYRQAPGKERDLVSMLMGDGSTFYADSVKGRFTFSQENAKNTVYLQMNSLKPEDTAMYYCGCATLGSRTIWGQGTQVTVSS"
assay_result = "binds"

[[record]]
binder = "mIL23R VHH6 (VHH) VHH: QVQLQESGGGSVQAGGSLRLSCAASGYTSGNYWMGWFRQAPGKEREGVATLWTGGASTFYGDSVKGRFTISRDNFKNTLYLQMNSLKVEDTAMYYCAADPALRLGANILRPAEYKYWGQGTQVTVSS"
assay_result = "binds"

[[record]]
binder = "mIL23R VHH42 (VHH) VHH: QVQLQESGGGLVQPGGSLRLSCAASGFTFSNYAMRWVRQAPGKGLEWVSGIDSRGSTIYADSVKGRFTISKDNAKNTLYLQLNSLKTEDTAMYYCAQGVYGDTYSGSQGTQVTVSS"
assay_result = "binds"

[[record]]
binder = "mIL23R VHH18 (VHH) VHH: QVQLQESGGGLVQPGGSLRLSCAASGFTFRLTAMRWVRQAPGKGLEWVSGIDSRGSTIYADSVKGRFTISKDNAKNTLYLQLNSLKTEDTAMYYCAQGVYGDTYSGSQGTQVTVSS"
assay_result = "binds"


If you can, please state the reported binding result value of mIL23R VHH12 (VHH) VHH: QVQLQESGGGSVQAGGSLRLSCAASGYTYSSCTMGWYRQAPGKERELVSMLISDGSTFYADSVKGRFTFSQENAKNTVYLQMNSLKPEDTAMYYCGCATLGSRTVWGQGTQVTVSS . binds

Now give it for mIL23R VHH32 (VHH) VHH: QVQLQESGGGLVRPGGSLRLSCAASGFTFSRSAMTWVRQAPGKGLDWVSGIDSGGTTVYADSVKGRFTISRDSAKNTLYLQMNSLKTEDTAVYYCAIGLPWGNTWRTRGQGTQVTVSS too. binds
